Assay: chemical genetic growth profiling, strain panel (AID 1159580);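 also: tested at 20 µM; growth read once vehicle control cultures reached saturation at 30 °C; lower values mean less growth of the strain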
Details: S. cerevisiae deletion strains, growth OD, locus YDR159W, strain sac3, active compounds read low
Among all 5,500 compounds or so, about 2,000 (36%) were called active. Roughly 18% stayed inconclusive and do not appear here. The list shows a part of the results.
Checkbox rule: normalized growth lower than 1 = Criterion met; normalized growth not lower than 1 = Criterion not met.

Use the examples below as a reference point.
c1ccc2c(Cc3c[nH]c4ccccc34)c[nH]c2c1; Criterion met
OCc1c[nH]c2ccccc12; Criterion met
COc1cc(/C=C/C(=O)N2CCC=CC2=O)cc(OC)c1OC; Criterion not met
COc1cc(O)cc(OC)c1OC; Criterion met
CC1(C)C=Cc2cc3ccc(=O)oc3cc2O1; Criterion met

# input for lookup
Input line: Take the compound CC1=NN(c2ccccc2)C(=O)C1 and say whether its normalized growth is less than 1.
Output line: Criterion met
